Experimental Details: in vivo
Study Conditions: Sprague-Dawley CD, rat, brain, sc, 5 mg/kg
Experimental Readout: Tmax (h)
// return numeric value only (unit: h, not printed)

Requested read-out: Tmax. Entry: CC1CCN(C[C@@H](NC(=O)[C@H]2Cc3ccc(O)cc3CN2)C(C)C)CC1 4

###

Study System: Delta-type opioid receptor (Homo sapiens)
Experimental Details: Antagonist activity at human delta-opioid receptor expressed in CHO cell membranes assessed as inhibition of DPDPE-induced [35S]GTPgammaS binding incubated for 60 mins by scintillation counting method
Type: functional
Experimental Readout: Ke

Query (molecule): CCC1CCN(C[C@@H](NC(=O)[C@H]2Cc3ccc(O)cc3CN2)C(C)C)CC1 ; field requested: Ke 2490 nM

What value of Ke has been recorded for this entry: CC1CCN(C[C@H](NC(=O)[C@@H]2Cc3ccc(O)cc3CN2)C(C)C)CC1 > 3000 nM

Need Ke of CC(C)[C@@H](CN1CCC(C)(C)CC1)NC(=O)[C@H]1Cc2ccc(O)cc2CN1 , thanks. 847 nM

Find the recorded Ke belonging to CC1CCN(C[C@@H](NC(=O)[C@@H]2Cc3ccc(O)cc3CN2)C(C)C)CC1 and report it. > 3000 nM

Please look up its Ke: CC1CCN(C[C@@H](NC(=O)[C@H]2Cc3ccc(O)cc3CN2)C(C)C)CC1 > 3000 nM

We next turn to a different molecule, shown below.
Form field: reported Ke of CC1CCN(C[C@H](NC(=O)[C@H]2Cc3ccc(O)cc3CN2)C(C)C)CC1 > 3000 nM
